Biological target: Synaptotagmin-4 (SYT4) (Homo sapiens)
Construct: Recombinant SYT4 protein
Sequence (Q9H2B2 whole entry): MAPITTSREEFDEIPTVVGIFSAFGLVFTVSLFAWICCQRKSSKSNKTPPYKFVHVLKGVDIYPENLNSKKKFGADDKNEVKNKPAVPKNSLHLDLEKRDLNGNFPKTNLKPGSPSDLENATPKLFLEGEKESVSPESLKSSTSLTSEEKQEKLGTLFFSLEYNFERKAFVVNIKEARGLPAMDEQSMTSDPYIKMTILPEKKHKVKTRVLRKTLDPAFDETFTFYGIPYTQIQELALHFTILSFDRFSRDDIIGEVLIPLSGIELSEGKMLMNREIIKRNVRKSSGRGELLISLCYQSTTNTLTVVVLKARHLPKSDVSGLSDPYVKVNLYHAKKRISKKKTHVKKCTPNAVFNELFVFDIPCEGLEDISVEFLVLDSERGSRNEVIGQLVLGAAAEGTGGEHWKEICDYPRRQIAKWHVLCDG
Experiment: SPR (Biacore T200, SYT4 immobilized on CM5 chip)
assay metric: Kd (µM)
One number for each entry, in µM.

Inquiry: Report measured Kd; entry is C=CC(=O)Nc1ccc2[nH]c(=O)n(C3CCN(Cc4ccc(-c5nc6cc[nH]c(=O)c6cc5-c5ccccc5)cc4)CC3)c2c1 [borussertib]
Reply text: 16
